Catalogue of Activity readings, one per entry.
System: Escherichia coli
PROTOCOL_DETAILS: Inhibition of Escherichia coli D110 DNA gyrase after 30 mins by supercoiling assay
Dear colleague, please return just the value in µg/mL, with no unit written.

Field: example entries. Status: answers known.
                                   compound  numeric_result
0  COC(=O)c1c(C)c(OC)cc(O)c1CNc1ccc(Cl)c(Cl)c1               2
1  COc1cc(O)c2c(c1C)C(=O)N(c1ccc(Cl)c(Cl)c1)C2               4
2  COC(=O)CCSC1c2c(O)cc(OC)c(C)c2C(=O)N1c1ccc(OC)cc1 (configuration not stated)             0.5

Challenge: For COC(=O)c1c(C)c(OC)cc(O)c1CNc1ccc(Cl)cc1 , what is its reported Activity?
Response given: 16

* * *

System: Escherichia coli
PROTOCOL_DETAILS: Inhibition of Escherichia coli D110 DNA gyrase after 30 mins by supercoiling assay
// assign Y if Activity falls strictly below 0.5 µg/mL, else N (ties count as N)

>>> print(df.to_string())
                                   molecule  class
0  COc1ccc(N2C(=O)c3c(C)c(OC)cc(O)c3C2c2ccco2)cc1 (stereo not drawn)      N
1  COc1cc(O)c2c(c1C)C(=O)N1c3cc4c(cc3C(=O)CC21)OCO4 (stereo not drawn)      N
2  COc1cc(O)c2c(c1C)C(=O)N1c3ccc(C)cc3COC21 (stereo not drawn)      Y
3  COc1ccc(N2C(=O)c3c(C)c(OC)cc(O)c3C2c2ccc(CC#N)s2)cc1 (stereo not drawn)      N
4  COc1ccc(N2C(=O)c3c(C)c(OC)cc(O)c3C2Sc2ncc[nH]2)cc1 (stereo not drawn)      N

Challenge: Consider COc1ccc(N2C(=O)c3c(C)c(OC)cc(O)c3C2c2ccc(C)o2)cc1 (stereo not drawn) . Does its Activity lie strictly below 0.5 µg/mL?
Response given: N

Challenge: Consider COc1ccc(N2C(=O)c3c(C)c(OC)cc(O)c3C2Sc2ncccn2)cc1 (stereo not drawn) . Does its Activity lie strictly below 0.5 µg/mL?
Response given: N

Challenge: Consider COC(=O)c1c(C)c(OC)cc(O)c1CNc1cccc(Cl)c1 . Does its Activity lie strictly below 0.5 µg/mL?
Response given: N

Challenge: Consider COc1cc(O)c2c(c1Br)C(=O)N1c3ccc(C)cc3COC21 (stereo not drawn) . Does its Activity lie strictly below 0.5 µg/mL?
Response given: Y
